Where these numbers come from: PubChem BioAssay

assay: S. cerevisiae growth modulation with rapamycin, primary screen, strain BY4716, OD600, 96 h (AID 1091); settings: higher = more signal, called active from +8 up or from −8 down; also: test concentration not given here

{"COMPOUND": "C[C@H](c1ccccc1)N1C(=O)[C@H]2[C@H]3[C@H](O)[C@H](O)CC(=O)[C@@H]3CC[C@H]2C1=O", "z-score": -0.478}
{"COMPOUND": "COC(=O)C1(C)C=C2C(=C(c3ccccc3)C(=O)C2C)CN1 (centres undefined)", "z-score": 0.654}
{"COMPOUND": "O=C1[C@H]2[C@H]3[C@H](O)[C@H](O)CC(=NO[C@@H]4O[C@H](CO)[C@@H](O)[C@H](O)[C@H]4O)[C@@H]3CC[C@H]2C(=O)N1c1ccc(F)cc1F", "z-score": -1.29}
{"COMPOUND": "C#CCCCON=C1C[C@@H](O)[C@@H](O)[C@@H]2[C@@H]3C(=O)N(c4cccc(Oc5ccccc5)c4)C(=O)[C@@H]3CC[C@@H]12", "z-score": -0.426}

* * *

biological target: Pro-neuregulin-1, membrane-bound isoform (Homo sapiens) (UniProt Q02297); experiment: NRG1 binders on small-molecule microarrays, primary screen, psychiatric disease protein project, biochemical, small-molecule microarray, fluorescence 635/667 (AID 1075); conditions: NRG1 binding, 635 nm fluorescence, higher = more signal;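 also: score combines 667 nm spot fluorescence with signal to noise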
Sequence (Q02297 whole entry, looked up, canonical isoform): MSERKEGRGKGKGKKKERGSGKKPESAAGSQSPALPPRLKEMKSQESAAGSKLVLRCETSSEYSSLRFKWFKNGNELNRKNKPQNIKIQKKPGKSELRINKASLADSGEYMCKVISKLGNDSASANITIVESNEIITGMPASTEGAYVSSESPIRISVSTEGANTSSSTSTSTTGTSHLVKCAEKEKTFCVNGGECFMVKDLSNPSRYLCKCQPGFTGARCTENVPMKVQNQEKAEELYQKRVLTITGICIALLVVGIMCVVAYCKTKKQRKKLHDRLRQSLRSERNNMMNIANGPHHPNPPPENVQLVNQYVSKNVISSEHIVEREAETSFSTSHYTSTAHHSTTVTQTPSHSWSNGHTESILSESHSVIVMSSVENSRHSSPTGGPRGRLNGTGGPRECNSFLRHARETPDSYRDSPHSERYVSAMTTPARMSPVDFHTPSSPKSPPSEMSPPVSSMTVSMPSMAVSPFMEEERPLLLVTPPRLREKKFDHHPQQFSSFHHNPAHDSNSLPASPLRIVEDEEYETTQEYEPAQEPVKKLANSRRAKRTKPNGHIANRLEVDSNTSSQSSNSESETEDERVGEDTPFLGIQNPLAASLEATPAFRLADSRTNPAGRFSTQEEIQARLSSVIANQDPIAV
# Lookup of reported composite z-score keyed by entry

{"COMPOUND": "COCC1=C2[C@@H](CCc3ccccc3)OB(O)C[C@@H]2n2c(=O)n(-c3ccccc3)c(=O)n2C1", "composite z-score": -0.391}
{"COMPOUND": "CO[C@@H]1COC(=O)CC=C[C@@H](C)[C@@H]2C=C[C@@H](O)[C@@H](COC(=O)CC=C[C@H]1C)O2", "composite z-score": -0.688}
{"COMPOUND": "O=C1c2ccccc2[C@@]2(Cc3ccccc3N(C3CC3)C2=O)[C@H](c2ccc(CO)cc2)N1Cc1ccccc1C(F)(F)F", "composite z-score": 0.809}
{"COMPOUND": "CO[C@H]1COC(=O)CC=C[C@H](C)[C@@H](NS(=O)(=O)c2ccc(C)cc2)COC(=O)CC=C[C@@H]1C", "composite z-score": -0.425}
{"COMPOUND": "CC(CCN1CCc2nc(-c3ccccc3)c(-c3ccccc3)cc2C1)=NOC(C)CN1CCCCc2nc(C)c(C)cc21 (stereo unspecified)", "composite z-score": 0.657}
{"COMPOUND": "CCOC(=O)CCN1C(=O)[C@H]2[C@H]3[C@H](O)[C@H](O)CC(=NOC[C@@H](O)COCc4ccco4)[C@H]3CC[C@H]2C1=O", "composite z-score": 0.035}

* * *

test: small-molecule binders of probe aNOTCH3, primary screen, biochemical, small-molecule microarray, 635/667 nm fluorescence (AID 1120); conditions: higher = more signal;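 also: probe is a biotin-tagged antibody raised against NOTCH3 rather than NOTCH3 protein; score merges spot fluorescence near 667 nm with spot signal to noise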

{"COMPOUND": "CCOC(=O)C1=CC[C@H]2C(=O)N(CC)C(=O)[C@@H]12", "composite z-score": 0.0242}
{"COMPOUND": "CC(C)N1CC=CC23O[C@@H]4C=CCCOC(=O)C4[C@H]2C(=O)N(CCCCCCO)[C@@H]3C1=O (some centres undefined)", "composite z-score": -0.193}
{"COMPOUND": "CC(CCC(=O)OC[C@H]1O[C@H](C#Cc2ccccc2)C=C[C@@H]1Oc1ccc(C)cc1)=NOC[C@@H](O)COCc1ccco1", "composite z-score": -0.781}
{"COMPOUND": "COC(=O)[C@@H]1N=C(c2ccc(OCCCO)cc2)O[C@@H]1c1ccccc1N=[N+]=[N-]", "composite z-score": 0.149}
